Source: paper PMC3205972

Test system: OE21 esophageal cancer cells
Assay: MTT colorimetric assay, in vitro growth inhibition
Format: cell-based, human
Settings: Homo sapiens, OE21, 72 h, read-out: IC50 In Vitro Growth Inhibitory Values
Quantity measured: pIC50
Answer as the number alone; pIC50 is minus log10 of concentration in mol/L.

pIC50 lookup needed for CC(=O)O[C@H]1C=C2CCN3Cc4cc5c(cc4[C@H]([C@@H]1O)[C@@H]23)OCO5 [compound 5] , thanks.
4.11

====

Tested on: SKMEL-28 melanoma cells
Assay: MTT colorimetric assay, in vitro growth inhibition
Type: cell-based, human
Details: read-out: In Vitro IC50 Growth Inhibitory Values; SKMEL; MTT, 72 h; concentrations of up to 10 μM
Quantity measured: IC50

Dear colleague, I am looking for the recorded IC50 of the following compound: CC(=O)O[C@H]1[C@H]2c3cc4c(cc3CN3CCC(=C[C@@H]1OC(C)=O)[C@H]23)OCO4
> 10 µM

Consider the compound shown here: CC(=O)O[C@H]1[C@H]2c3cc4c(cc3CN3CC[C@@H](C[C@@H]1OC(C)=O)[C@H]23)OCO4 What is its recorded IC50?
> 10 µM

Name the recorded IC50 for CC(=O)O[C@H]1[C@H]2c3cc4c(cc3CN3CC[C@H](C[C@@H]1OC(C)=O)[C@H]23)OCO4 .
> 10 µM

====

System: Normal Cell Lines (Wi38, WS1, NHDF)
Test: MTT colorimetric assay, mean over three normal cell lines
Assay type: cell-based
Settings: read-out: IC50 In Vitro Growth Inhibitory Values, Normal Cell Lines, Mean ± SEM
pIC50: −log10 of the molar value.
Quantity measured: pIC50

Quick check: pIC50 on Normal Cell Lines (Wi38, WS1, NHDF), item O[C@H]1[C@H]2c3cc4c(cc3CN3CCC(=C[C@@H]1Cl)[C@H]23)OCO4 ?
< 4.14

Query for Normal Cell Lines (Wi38, WS1, NHDF): what pIC50 does the record show for COC1=C[C@@H]2CCN3Cc4cc5c(cc4[C@@H]([C@H]23)[C@@H]1O)OCO5 ?
< 4.00

Param readout = pIC50; param system = Normal Cell Lines (Wi38, WS1, NHDF); param query = COc1cc2c(cc1O)[C@@H]1[C@H](O)[C@@H](O)C=C3CCN(C2)[C@H]31 ; response: value
4.20

Lab note: need pIC50 for CC(=O)O[C@H]1C=C2CCN3Cc4cc5c(cc4[C@H]([C@@H]1O)[C@@H]23)OCO5 on Normal Cell Lines (Wi38, WS1, NHDF), anyone have it?
< 4.02

Query for Normal Cell Lines (Wi38, WS1, NHDF): what pIC50 does the record show for O[C@H]1[C@H]2c3cc4c(cc3CN3CCC(=C[C@@H]1O)[C@H]23)OCO4 ?
< 4.00

====

Tested on: A549 non-small-cell-lung cancer (NSCLC) cells
Experiment: MTT colorimetric assay, in vitro growth inhibition
Type: cell-based, human
Conditions: Homo sapiens, A549, 72 h, read-out: IC50 In Vitro Growth Inhibitory Values
Quantity measured: pIC50
Note on units: pIC50 is unitless, being -log10 of a concentration expressed in mol/L.

Reported pIC50 for CC(=O)O[C@H]1C=C2CCN3Cc4cc5c(cc4[C@H]([C@@H]1O)[C@@H]23)OCO5 : what is it?
4.32
